# target_system: human androgen receptor (Homo sapiens, UniProt P10275)
# Construct: expressed in transfected cells; host or cells: HEK293
# Sequence (P10275 whole entry): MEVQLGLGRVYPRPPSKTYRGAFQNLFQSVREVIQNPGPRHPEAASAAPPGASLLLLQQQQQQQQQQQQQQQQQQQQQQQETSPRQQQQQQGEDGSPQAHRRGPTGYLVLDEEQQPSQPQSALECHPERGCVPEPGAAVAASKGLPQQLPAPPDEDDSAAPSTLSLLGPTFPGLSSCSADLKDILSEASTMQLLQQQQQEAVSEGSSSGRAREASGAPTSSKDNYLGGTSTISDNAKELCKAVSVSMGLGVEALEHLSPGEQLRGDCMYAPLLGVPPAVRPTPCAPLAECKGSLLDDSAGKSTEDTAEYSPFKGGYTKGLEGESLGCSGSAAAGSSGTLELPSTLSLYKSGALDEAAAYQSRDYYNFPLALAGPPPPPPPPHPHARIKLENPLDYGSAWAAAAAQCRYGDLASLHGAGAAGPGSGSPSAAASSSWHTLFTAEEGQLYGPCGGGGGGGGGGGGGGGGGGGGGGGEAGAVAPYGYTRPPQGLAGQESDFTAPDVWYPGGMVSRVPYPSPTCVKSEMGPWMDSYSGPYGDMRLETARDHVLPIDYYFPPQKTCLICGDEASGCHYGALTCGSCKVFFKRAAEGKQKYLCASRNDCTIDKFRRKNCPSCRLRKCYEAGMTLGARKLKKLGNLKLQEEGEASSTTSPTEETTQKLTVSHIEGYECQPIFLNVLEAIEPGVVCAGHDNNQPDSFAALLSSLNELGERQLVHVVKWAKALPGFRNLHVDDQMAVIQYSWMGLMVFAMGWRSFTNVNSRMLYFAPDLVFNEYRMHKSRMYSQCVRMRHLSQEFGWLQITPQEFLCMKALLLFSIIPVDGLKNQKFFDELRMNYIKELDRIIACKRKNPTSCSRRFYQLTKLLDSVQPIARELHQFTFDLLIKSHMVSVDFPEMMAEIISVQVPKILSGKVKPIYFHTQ
# assay_comment: Reporter assay of an androgen receptor responsive sequence (luciferase, transiently transfected HEK293 cells)
# Assay type: cell-based
# experimental_context: 24 hours incubation, relative to activity of 100 nM DHT, read-out: AR transcriptive activity (pEC50) (converted)
property_name: EC50 (nM)

I: COc1cccc(CN(c2ccc(C#N)cc2)c2nc(C(=O)NS(C)(=O)=O)c(Br)s2)c1 [Example 265]
II: Cc1sc(N(Cc2ccccc2)c2ccc(S(F)(F)(F)(F)F)cc2)nc1C(=O)NS(C)(=O)=O [Example 241]
query: Compare reported EC50 values for I and II . Which is lower? // respond with label for picked entry
result: I

1: Cc1sc(N(Cc2cccc(OCC(C)C)c2)c2ccc(C#N)cc2)nc1C(=O)NS(C)(=O)=O [Compound 586]
2: Cc1sc(N(CCc2ccc(OC(F)F)cc2)Cc2nc(C3CC3)no2)nc1C(=O)NS(C)(=O)=O [Compound 162]
query: API: POST /compare with 1 and 2 ; response names the item with higher EC50. To answer, give the label that identifies your chosen option.
result: 1

I: CS(=O)(=O)NC(=O)c1nc(N(Cc2ccc(C(F)(F)F)nc2)c2ccc(C#N)cc2)sc1Br [Compound 645]
II: Cc1sc(N(Cc2ccc(-c3ccc(F)cc3)cc2)c2ccc(C#N)cc2)nc1C(=O)NS(C)(=O)=O [Compound 141]
III: Cc1sc(N(CCC2CCCCC2)Cc2ccc(Cl)cc2)nc1C(=O)NS(C)(=O)=O [Compound 728]
IV: CS(=O)(=O)NC(=O)c1nc(N(Cc2ccc(OC(F)F)cc2)c2ccc(C#N)cc2)sc1C1CC1 [Compound 662]
query: Could you please sort these 4 entries by EC50 from high to low? I would appreciate it if you listed the labels in the requested order.
result: IV, I, III, II

a: Cc1sc(N(Cc2ccccc2)c2ccc(C(F)(F)F)cc2)nc1C(=O)NS(C)(=O)=O [Compound 341]
b: CSc1cccc(CN(c2ccc(C#N)cc2)c2nc(C(=O)NS(C)(=O)=O)c(C)s2)c1 [Compound 431]
c: COc1ccc(CN(c2ccc(C#N)cc2)c2nc(C(=O)NS(C)(=O)=O)c(C)s2)nn1 [Compound 516]
query: Arrange these molecules by their EC50, starting with the largest number. Please list the labels according to the requested order.
result: c, a, b

1: Cc1sc(N(Cc2ccc(-c3ccc(F)cn3)nc2)c2ccc(C#N)cc2)nc1C(=O)NS(C)(=O)=O [Compound 596]
2: COCCCOc1ccc(CN(c2ccc(C#N)cc2)c2nc(C(=O)NS(C)(=O)=O)c(C)s2)cc1 [Compound 582]
query: Parameter metric = EC50. Return the lower-valued option from 1 and 2 . Answer format: the label of the selected item.
result: 2
(2: 794 nM, 1: 3980 nM)

I: Cc1sc(N(Cc2cc3ccccc3o2)c2ccc(C#N)cc2)nc1C(=O)NS(C)(=O)=O [Compound 479]
II: Cc1sc(N(Cc2cccc(OC(C)C)c2)c2ccc(C#N)cc2)nc1C(=O)NS(C)(=O)=O [Compound 585]
query: Param pair: I , II . Output: the one whose EC50 is numerically greater. Kindly give the label for the entry you pick.
result: II
